Where these numbers come from: patent US20110165161A1

relative binding activity (% of WT) values by entry
# target: T1, EGFI-Cr1 E25K (human, UniProt P16422 24-63)
# T1 construct: not shown: The fused constant region of human immunoglobulin gamma 1 heavy chain (Cr1)
# T1 chain: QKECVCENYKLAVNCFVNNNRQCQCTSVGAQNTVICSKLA
# experiment: direct ELISA, coated EGFI-Cr1 fusion, 0.1 µg/ml antibody
I only need the number, in %, no unit after it.

// worked examples, relative binding activity (% of WT) included
binder	relative binding activity (% of WT) / %
murine monoclonal antibody 12H8 (antibody, mouse IgG2a, V domains shown, Mouse IgG2a, kappa, from hybridoma; also called m342-12H8.3; m12H8) VH: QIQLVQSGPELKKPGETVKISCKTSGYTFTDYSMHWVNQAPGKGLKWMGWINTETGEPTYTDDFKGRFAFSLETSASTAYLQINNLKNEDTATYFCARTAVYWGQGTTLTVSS VL: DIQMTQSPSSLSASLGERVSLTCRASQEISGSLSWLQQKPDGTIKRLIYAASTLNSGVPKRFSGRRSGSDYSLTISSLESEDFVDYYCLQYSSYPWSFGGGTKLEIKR	1
murine monoclonal antibody 1F10 (antibody, mouse IgG1, V domains shown, Mouse IgG1, lambda 1, from hybridoma; also called m338-1F10.3) VH: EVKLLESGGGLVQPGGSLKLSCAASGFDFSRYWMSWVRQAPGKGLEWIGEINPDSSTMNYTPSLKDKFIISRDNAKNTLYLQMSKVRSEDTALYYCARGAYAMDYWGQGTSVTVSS VL: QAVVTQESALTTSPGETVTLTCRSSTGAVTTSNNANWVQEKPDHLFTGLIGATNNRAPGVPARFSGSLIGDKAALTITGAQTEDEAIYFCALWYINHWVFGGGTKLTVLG	10

Now examine the next entry.
Q. Which value of relative binding activity (% of WT) has been reported for murine monoclonal antibody 2D11 (antibody, mouse IgG1, V domains shown, Mouse IgG1, kappa, from hybridoma; also called m322-2D11.19) VH: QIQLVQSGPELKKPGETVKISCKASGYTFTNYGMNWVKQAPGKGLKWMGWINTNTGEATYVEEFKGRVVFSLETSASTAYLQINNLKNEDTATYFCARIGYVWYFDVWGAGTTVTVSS VL: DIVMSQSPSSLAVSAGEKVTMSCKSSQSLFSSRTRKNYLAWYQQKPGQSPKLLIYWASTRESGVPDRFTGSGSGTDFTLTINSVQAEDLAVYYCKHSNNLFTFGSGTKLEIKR in the records?
A. 93
